Molecular target: BRAF G469A (Homo sapiens, UniProt P15056, G469A)
Construct: Horizon Discovery (HCT-116 BRAF−/− cells); host or cells: HCT-116 BRAF−/− cells, clone 34, lentiviral transduction
Sequence (P15056 whole entry G469A): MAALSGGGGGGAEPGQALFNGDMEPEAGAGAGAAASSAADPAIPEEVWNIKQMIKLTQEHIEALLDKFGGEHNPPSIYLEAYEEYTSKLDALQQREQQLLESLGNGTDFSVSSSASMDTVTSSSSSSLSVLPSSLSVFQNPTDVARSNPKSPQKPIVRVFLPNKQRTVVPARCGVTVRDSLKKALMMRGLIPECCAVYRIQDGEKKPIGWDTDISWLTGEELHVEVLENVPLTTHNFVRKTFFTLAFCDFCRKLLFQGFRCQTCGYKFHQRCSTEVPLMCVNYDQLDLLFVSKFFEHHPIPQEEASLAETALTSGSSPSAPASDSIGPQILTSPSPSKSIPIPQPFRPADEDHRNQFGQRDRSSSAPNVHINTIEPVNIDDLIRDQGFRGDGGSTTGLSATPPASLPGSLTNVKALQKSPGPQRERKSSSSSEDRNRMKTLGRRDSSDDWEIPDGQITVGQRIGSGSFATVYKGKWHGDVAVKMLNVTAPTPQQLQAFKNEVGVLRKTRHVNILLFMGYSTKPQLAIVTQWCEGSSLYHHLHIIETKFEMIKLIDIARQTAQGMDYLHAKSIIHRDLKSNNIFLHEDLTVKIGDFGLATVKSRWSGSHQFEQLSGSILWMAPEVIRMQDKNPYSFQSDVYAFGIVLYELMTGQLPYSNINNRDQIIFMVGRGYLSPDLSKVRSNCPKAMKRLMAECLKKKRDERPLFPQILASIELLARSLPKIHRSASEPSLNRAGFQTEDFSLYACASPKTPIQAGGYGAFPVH
Assay: BRAF HiBiT degradation assay, C-terminal HiBiT-tagged BRAF G469A overexpressed in HCT-116 BRAF−/− cells (clone 34), Nano-Glo HiBiT Lytic assay
Type: cell-based
Settings: BRAF G469A (Class 2), HCT-116 BRAF−/− cells; observed Dmax relative to DMSO control
Procedure: An A375 cell line expressing a homozygous V600E mutation was purchased from ATCC (Manassas, VA, USA). […] HiBiT signal was measured by a Nano-Glo HiBiT Lytic assay (Promega cat. no. N3050). […] Luminesce units (LU) were read on an EnVision plate reader 2105 (Perkin Elmer). Percent protein remaining and viability remaining per sample were calculated as follows: […]
Quick reference for Dmax among some compounds

Some entries whose results are on file:
O=C1CC[C@H](c2ccc(N3CCC(CN4CCN(c5ccc(-n6cc(-c7cc(F)cc(NS(=O)(=O)N8CC[C@@H](F)C8)c7F)c(-c7ccncc7)n6)nc5)CC4)CC3)nc2)C(=O)N1 [Compound 305]    > 70%
O=C1CCN(c2ccc(N3CCC(CN4CCN(c5ccc(-n6cc(-c7cc(Cl)cc(NS(=O)(=O)N8CC(F)C8)c7F)c(-c7ccncc7)n6)c(F)c5)CC4)CC3)nc2)C(=O)N1 [Compound 369]    30 to 70%
CCCS(=O)(=O)Nc1cccc(-c2nc(C3CCC4(CC3)CCN(CC3CCN(c5ccc6c(c5)CN(C5CCC(=O)NC5=O)C6=O)CC3)CC4)sc2-c2ccnc(N)n2)c1F (racemic) [Compound 258]    < 30%

Request: Look up Dmax: O=C1CCN(c2ccc(N3CCC(CN4CCN(c5ccc(-n6cc(-c7cc(Cl)cc(NS(=O)(=O)N8CCCC8)c7F)c(-c7ccncc7)n6)cc5)CC4)CC3)nc2)C(=O)N1 [Compound 355]
Result: 30 to 70%

Request: Look up Dmax: O=C1CC[C@H](c2ccc(N3CCC(CN4CCN(c5ccc(-n6cc(-c7cc(Cl)cc(NS(=O)(=O)N8CC(F)C8)c7F)c(-c7ccncc7)n6)c(F)c5)CC4)CC3)cc2)C(=O)N1 [Compound 338]
Result: 30 to 70%
